- System: NCI-H322M lung
- procedure summary: NCI-60 one-dose screen, 48 h
- condition details: 10 µM unless noted
This is part of a sample that, as a whole, favours compounds with a hit. Of some 83,000 tested, about 20% had one in any assay. Active and inactive are the calls of the source. The calls were made as follows: active = growth percent below 10; inactive = the rest.
Outcome (select one): active, inactive

Reference set (7 entries):
Per the assay record, what outcome was assigned to O=c1ccc2ccccc2o1 ?
inactive

For this molecule, state the assay outcome: CCCOC(=O)c1ccc2c(c1)[N+](=O)C(C(=O)c1ccccc1)=C(C(F)(F)F)[N+]2=O
active

Hi team, can someone confirm the assay call for O=C1/C(=C/c2ccc([N+](=O)[O-])cc2)Oc2ccc(O)cc21 ?
inactive

Assay outcome for COc1cc(/C=C2\C(=O)N(c3c(Cl)cccc3Cl)c3ccccc32)cc(OC)c1O : what was it?
inactive

Dear all, I need the recorded test outcome for Cc1ccc(N(CSc2ccc(Cl)cc2)CSc2ccc(Cl)cc2)cc1 , thank you.
inactive

Short answer needed: outcome of this test for COc1ccc(NC(=O)c2ccc3c(c2)nc(-c2ccc(Cl)cc2)n3-c2cc(C(C)(C)C)[nH]n2)cc1 ?
inactive

Would you mind telling me which call this test gave COC(=O)C1C2CC3c4[nH]c5cc(OC)ccc5c4CCN3CC2CC(OC2CCCCO2)C1OC (stereo not drawn) ?
inactive

---
Recorded test call requested for Cc1nc2cc(Nc3nc(NCCN)nc(Nc4ccc(F)cc4)n3)ccc2n1Cc1ccccc1
inactive

###

- Tested on: HCT-116 colon
- procedure summary: NCI-60 one-dose screen, 48 h
- condition details: 10 µM unless noted
About 83,000 compounds went through this panel and 20% of them were active in at least one assay; those are over-represented in the sample as a whole. Calls of active or inactive are those of the source. How the source made its calls: active means growth percent below 10; inactive means the rest.
Choose the fitting class; nothing outside active, inactive is accepted.

Which outcome was assigned to CCCCCCCC/C=C\CCCCCCCCOc1cccc(CC(=O)NCC[N+]2(C)CCCCC2)c1 in this test?
inactive

State the result this test recorded for CN(C)c1ccc(/C=C(\C#N)c2cc3ccccc3n2C)cc1 .
inactive

Returns: the outcome recorded for O=c1ccc2ccccc2o1 in this assay.
inactive

Record lookup: outcome of this test for Cc1c(NCC(=O)Nc2nc3ccccc3[nH]2)c(=O)n(-c2ccccc2)n1C ?
inactive

Outcome? O=c1c2c(=NCCN3CCCC3)cc3c(=O)n(CCCN4CCOCC4)c(=O)c4c(-c5ccc(CN6CCCC6)cc5)cc(c(O)n1CCCN1CCOCC1)c2c4-3
active

Could you please tell me the result logged for CC(=O)c1cc(C)c(OC(=O)c2ccccc2)c(C)c1 in this assay?
inactive

What was the test verdict on CSc1ccc(OC(C)=O)cc1C ?
inactive

###

Entries annotated with measured growth
- Test system: OVCAR-5 ovarian
- procedure summary: NCI-60 one-dose screen, 48 h (100 = growth as untreated, 0 = no growth, -100 = all killed)
- condition details: 10 µM unless noted
The panel holds about 83,000 compounds, 20% with a hit somewhere; the sample as a whole holds those more often.
Please state the figure in %; there is no need to write the unit.

Field: example entries. Status: answers known.
State growth (OVCAR-5 ovarian) of Clc1nc(-c2ccccn2)nc2sc3c(c12)CCCCCC3 .
108

# return growth of C=CC[P+](c1ccccc1)(c1ccccc1)c1ccccc1 (system: OVCAR-5 ovarian)
77

Jot down growth (OVCAR-5 ovarian) of Brc1ccc(Br)nn1 .
-58.6

Continuing:
Give growth only, for COc1cc(/C=C2\C(=O)Nc3ccccc32)cc(OC)c1O , using OVCAR-5 ovarian data.
112

State measured growth of the compound Cc1ccc(S(=O)(=O)N2CCc3ccc(O)c4c3C2CCc2ccccc2-4)cc1 (configuration not stated) with OVCAR-5 ovarian.
110

State growth (OVCAR-5 ovarian) of CC(=O)Nc1ccc(S(=O)(=O)N/N=C\c2ccc(Cl)c(Cl)c2)cc1 .
108

State growth on OVCAR-5 ovarian. Entry: O=C1CN2CCC1C/C2=C\c1ccnc2c(Cl)cccc12 (configuration not stated)
103

Answer with growth of O=C1NC(=O)C2(CCCC2C(=O)O)N1 (configuration not stated) measured for OVCAR-5 ovarian.
110

Report its growth with OVCAR-5 ovarian as the test system: CCOC(=O)c1cnn(CC(O)c2ccc(F)cc2)c1NC(=O)Nc1ccccc1F (configuration not stated)
101

Give growth for this entry on OVCAR-5 ovarian: Fc1c[c-]c(-c2ccccn2)c(F)c1.Fc1c[c-]c(-c2ccccn2)c(F)c1.[Cl][Pt+].[Cl][Pt+].c1ccc([PH+](C[PH+](c2ccccc2)c2ccccc2)c2ccccc2)cc1
49.2
